studySystem: UniProt P14416
Sequence (P14416 whole entry): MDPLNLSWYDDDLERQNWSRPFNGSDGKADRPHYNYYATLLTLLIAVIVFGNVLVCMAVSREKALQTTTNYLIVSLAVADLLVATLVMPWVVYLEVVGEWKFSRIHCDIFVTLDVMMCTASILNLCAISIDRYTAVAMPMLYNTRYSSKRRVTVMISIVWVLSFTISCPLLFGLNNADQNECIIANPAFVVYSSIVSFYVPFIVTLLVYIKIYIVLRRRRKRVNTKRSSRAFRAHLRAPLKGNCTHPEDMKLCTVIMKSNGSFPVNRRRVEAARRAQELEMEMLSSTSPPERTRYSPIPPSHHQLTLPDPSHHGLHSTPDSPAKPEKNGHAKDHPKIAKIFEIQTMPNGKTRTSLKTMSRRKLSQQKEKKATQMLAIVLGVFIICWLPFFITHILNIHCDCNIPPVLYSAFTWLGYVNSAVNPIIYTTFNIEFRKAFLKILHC
measurementDescription: Compound was evaluated for binding affinity against Dopamine receptor D2 in CHO cells using [125I]iodosulpiride as the radioligand
# Lookup of reported Ki keyed by entry
readout: Ki

compoundSmiles: COc1ccc(S(=O)(=O)N2CCc3ccc(I)cc32)cc1N1CCNCC1
readoutValue: 2.51 µM
//
compoundSmiles: COc1ccc(S(=O)(=O)Nc2cc(Br)ccc2Br)cc1N1CCNCC1
readoutValue: > 10 µM
//
compoundSmiles: COc1ccc(S(=O)(=O)Nc2cc(Br)cc(F)c2Br)cc1N1CCNCC1
readoutValue: > 5.01 µM
//
compoundSmiles: COc1ccc(S(=O)(=O)Nc2cc(Cl)cc(Cl)c2Cl)cc1N1CCNCC1
readoutValue: > 10 µM

* * *

studySystem: Alpha-1B adrenergic receptor (Homo sapiens, UniProt P35368)
Sequence (P35368 whole entry): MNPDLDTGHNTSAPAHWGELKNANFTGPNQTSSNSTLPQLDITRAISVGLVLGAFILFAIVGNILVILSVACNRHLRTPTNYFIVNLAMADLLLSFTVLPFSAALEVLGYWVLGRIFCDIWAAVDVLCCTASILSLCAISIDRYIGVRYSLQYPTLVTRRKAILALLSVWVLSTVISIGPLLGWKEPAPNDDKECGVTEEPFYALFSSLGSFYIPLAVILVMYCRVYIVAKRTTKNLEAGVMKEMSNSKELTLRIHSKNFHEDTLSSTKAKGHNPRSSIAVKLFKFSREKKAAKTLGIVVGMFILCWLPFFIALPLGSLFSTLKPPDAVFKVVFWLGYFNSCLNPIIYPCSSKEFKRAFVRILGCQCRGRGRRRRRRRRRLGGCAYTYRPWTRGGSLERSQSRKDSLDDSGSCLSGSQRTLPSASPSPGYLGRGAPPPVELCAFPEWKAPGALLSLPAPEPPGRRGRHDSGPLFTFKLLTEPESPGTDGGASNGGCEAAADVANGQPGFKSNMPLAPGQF
pKi: −log10 of the molar value.
# Lookup of reported pKi keyed by entry

compoundSmiles: COc1ccc(S(=O)(=O)N2CCc3ccc(I)cc32)cc1N1CCNCC1
pKi: 6.00

compoundSmiles: COc1ccc(S(=O)(=O)Nc2cc(Br)cc(F)c2Br)cc1N1CCNCC1
pKi: < 5.10

compoundSmiles: COc1ccc(S(=O)(=O)Nc2cc(Cl)cc(Cl)c2Cl)cc1N1CCNCC1
pKi: < 5.40

compoundSmiles: COc1ccc(S(=O)(=O)Nc2cc(Br)ccc2Br)cc1N1CCNCC1
pKi: < 5.70

* * *

studySystem: D(3) dopamine receptor (Homo sapiens, UniProt P35462)
Sequence (P35462 whole entry): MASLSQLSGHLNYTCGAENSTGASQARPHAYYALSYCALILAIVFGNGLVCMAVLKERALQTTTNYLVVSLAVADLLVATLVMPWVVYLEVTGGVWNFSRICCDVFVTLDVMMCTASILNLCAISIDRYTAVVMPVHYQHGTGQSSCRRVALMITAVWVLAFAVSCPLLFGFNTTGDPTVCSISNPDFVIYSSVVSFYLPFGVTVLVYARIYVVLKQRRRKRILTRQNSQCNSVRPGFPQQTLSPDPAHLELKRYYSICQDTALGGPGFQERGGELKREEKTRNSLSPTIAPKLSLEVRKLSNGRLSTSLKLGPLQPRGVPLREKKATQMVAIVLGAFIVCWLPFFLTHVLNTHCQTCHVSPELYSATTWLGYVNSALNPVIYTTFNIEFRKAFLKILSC
measurementDescription: Compound was evaluated for binding affinity against Dopamine receptor D3 in CHO cells using [125I]iodosulpiride as the radioligand

compoundSmiles: COc1ccc(S(=O)(=O)Nc2cc(Br)ccc2Br)cc1N1CCNCC1
studySystem: D(3) dopamine receptor (Homo sapiens, UniProt P35462)
Ki: > 5.01 µM
//
compoundSmiles: COc1ccc(S(=O)(=O)Nc2cc(Cl)cc(Cl)c2Cl)cc1N1CCNCC1
studySystem: D(3) dopamine receptor (Homo sapiens, UniProt P35462)
Ki: > 3.98 µM
//
compoundSmiles: COc1ccc(S(=O)(=O)Nc2cc(Br)cc(F)c2Br)cc1N1CCNCC1
studySystem: D(3) dopamine receptor (Homo sapiens, UniProt P35462)
Ki: > 5.01 µM
//
compoundSmiles: COc1ccc(S(=O)(=O)N2CCc3ccc(I)cc32)cc1N1CCNCC1
studySystem: D(3) dopamine receptor (Homo sapiens, UniProt P35462)
Ki: 1 µM

* * *

studySystem: UniProt P30939
Sequence (P30939 whole entry): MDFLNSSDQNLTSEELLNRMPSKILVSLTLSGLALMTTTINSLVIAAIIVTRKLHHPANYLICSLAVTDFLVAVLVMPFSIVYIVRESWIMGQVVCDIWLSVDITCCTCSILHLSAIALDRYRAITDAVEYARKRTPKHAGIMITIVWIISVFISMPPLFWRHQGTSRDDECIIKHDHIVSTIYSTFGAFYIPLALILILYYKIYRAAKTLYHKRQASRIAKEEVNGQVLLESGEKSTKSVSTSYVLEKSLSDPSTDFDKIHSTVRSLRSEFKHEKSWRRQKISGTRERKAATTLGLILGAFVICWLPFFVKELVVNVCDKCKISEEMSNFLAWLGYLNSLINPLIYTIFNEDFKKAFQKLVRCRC
measurementDescription: Compound was evaluated for binding affinity against human cloned 5-hydroxytryptamine 1F receptor in CHO cells using [3H]-5-HT as the radioligand
readout: Ki

compoundSmiles: COc1ccc(S(=O)(=O)Nc2cc(Cl)cc(Cl)c2Cl)cc1N1CCNCC1
readoutValue: > 10 µM
//
compoundSmiles: COc1ccc(S(=O)(=O)N2CCc3ccc(I)cc32)cc1N1CCNCC1
readoutValue: > 7.94 µM
//
compoundSmiles: COc1ccc(S(=O)(=O)Nc2cc(Br)cc(F)c2Br)cc1N1CCNCC1
readoutValue: > 10 µM
//
compoundSmiles: COc1ccc(S(=O)(=O)Nc2cc(Br)ccc2Br)cc1N1CCNCC1
readoutValue: > 10 µM

* * *

# Lookup of reported pKi keyed by entry
studySystem: 5-hydroxytryptamine receptor 1D (Homo sapiens)
Sequence (P28221 whole entry): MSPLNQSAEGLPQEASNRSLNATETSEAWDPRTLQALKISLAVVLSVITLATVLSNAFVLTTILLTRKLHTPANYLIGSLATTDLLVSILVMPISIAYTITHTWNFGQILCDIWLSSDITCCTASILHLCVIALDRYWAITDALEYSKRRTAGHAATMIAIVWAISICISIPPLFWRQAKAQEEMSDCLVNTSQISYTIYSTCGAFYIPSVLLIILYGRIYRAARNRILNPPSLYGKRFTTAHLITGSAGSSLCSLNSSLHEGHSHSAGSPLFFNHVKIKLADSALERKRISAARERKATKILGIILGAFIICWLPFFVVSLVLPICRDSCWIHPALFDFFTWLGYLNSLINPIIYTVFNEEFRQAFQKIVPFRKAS
measurementDescription: Compound was evaluated for binding affinity against human cloned 5-hydroxytryptamine 1D receptor in CHO cells using [3H]5-HT as the radioligand
pKi: −log10 of the molar value.
readout: pKi

compoundSmiles: COc1ccc(S(=O)(=O)Nc2cc(Br)cc(F)c2Br)cc1N1CCNCC1
readoutValue: < 5.40
//
compoundSmiles: COc1ccc(S(=O)(=O)Nc2cc(Br)ccc2Br)cc1N1CCNCC1
readoutValue: < 5.80
//
compoundSmiles: COc1ccc(S(=O)(=O)Nc2cc(Cl)cc(Cl)c2Cl)cc1N1CCNCC1
readoutValue: < 5.50
//
compoundSmiles: COc1ccc(S(=O)(=O)N2CCc3ccc(I)cc32)cc1N1CCNCC1
readoutValue: 6.70

* * *

measurementDescription: Bioavailability was determined upon 10 mg/kg in 1% methylcellulose peroral administration in rats
Format: ADME, organism-based
measurementSetup: rat, in vivo, po
readout: bioavailability

compoundSmiles: COc1ccc(S(=O)(=O)Nc2cc(Cl)cc(Cl)c2)cc1N1CCNCC1
readoutValue: 51%

* * *

Ki data for 5-hydroxytryptamine receptor 6 (Homo sapiens) follow.

compoundSmiles: COc1ccc(S(=O)(=O)Nc2cccc(Cl)c2)cc1N1CCNCC1
Ki: 1.26 nM
--
compoundSmiles: COc1ccc(S(=O)(=O)N2CCc3ccc(I)cc32)cc1N1CCNCC1
Ki: 0.316 nM
--
compoundSmiles: COc1ccc(S(=O)(=O)Nc2cc(Br)ccc2Br)cc1N1CCNCC1
Ki: 1 nM
--
compoundSmiles: COc1ccc(S(=O)(=O)Nc2ccc(I)cc2)cc1N1CCNCC1
Ki: 2 nM
--
compoundSmiles: COc1ccc(S(=O)(=O)Nc2ccc(Cl)c(Cl)c2)cc1N1CCNCC1
Ki: 2.51 nM
--
compoundSmiles: COc1ccc(S(=O)(=O)Nc2cc(Br)cc(F)c2Cl)cc1N1CCNCC1
Ki: 3.16 nM
--
compoundSmiles: COc1ccc(S(=O)(=O)Nc2cc(Br)cc(Br)c2Cl)cc1N1CCNCC1
Ki: 2.51 nM

* * *

# Lookup of reported Ki keyed by entry
studySystem: UniProtKB Q13639
Sequence (Q13639 whole entry): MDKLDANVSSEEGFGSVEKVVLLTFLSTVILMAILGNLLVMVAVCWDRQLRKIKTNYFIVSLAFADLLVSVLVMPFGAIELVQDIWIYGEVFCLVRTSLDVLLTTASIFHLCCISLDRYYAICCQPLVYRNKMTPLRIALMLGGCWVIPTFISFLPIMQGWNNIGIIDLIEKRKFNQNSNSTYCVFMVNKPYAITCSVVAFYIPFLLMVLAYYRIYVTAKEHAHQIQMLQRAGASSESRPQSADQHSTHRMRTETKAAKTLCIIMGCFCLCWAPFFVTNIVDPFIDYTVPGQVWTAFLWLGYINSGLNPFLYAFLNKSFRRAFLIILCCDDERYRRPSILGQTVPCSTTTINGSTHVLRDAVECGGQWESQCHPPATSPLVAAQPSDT
measurementDescription: Compound was evaluated for the binding affinity against human cloned 5-hydroxytryptamine 4 receptor in HeLa cells using [3H]-LSD as the radioligand
readout: Ki (µM)

compoundSmiles: COc1ccc(S(=O)(=O)Nc2cc(Br)cc(F)c2Br)cc1N1CCNCC1
inequalitySymbol: >
readoutValue: 5.01

compoundSmiles: COc1ccc(S(=O)(=O)Nc2cc(Br)ccc2Br)cc1N1CCNCC1
inequalitySymbol: =
readoutValue: 3.16

compoundSmiles: COc1ccc(S(=O)(=O)Nc2cc(Cl)cc(Cl)c2Cl)cc1N1CCNCC1
inequalitySymbol: >
readoutValue: 10

compoundSmiles: COc1ccc(S(=O)(=O)N2CCc3ccc(I)cc32)cc1N1CCNCC1
inequalitySymbol: =
readoutValue: 3.98

* * *

# Lookup of reported Ki keyed by entry
studySystem: UniProtKB P50406
measurementDescription: Binding affinity against human 5-hydroxytryptamine 6 receptor

compoundSmiles: COc1ccc(S(=O)(=O)Nc2cc(Cl)cc(Cl)c2Cl)cc1N1CCNCC1
Ki (nM): 2
//
compoundSmiles: COc1ccc(S(=O)(=O)Nc2cc(I)ccc2C)cc1N1CCNCC1
Ki (nM): 0.794
//
compoundSmiles: COc1ccc(S(=O)(=O)Nc2c(F)cc(Br)cc2F)cc1N1CCNCC1
Ki (nM): 158
//
compoundSmiles: COc1ccc(Cl)cc1NS(=O)(=O)c1ccc(OC)c(N2CCNCC2)c1
Ki (nM): 1.26
//
compoundSmiles: COc1ccc(S(=O)(=O)Nc2cc(Cl)cc(Cl)c2)cc1N1CCNCC1
Ki (nM): 0.631
//
compoundSmiles: COc1ccc(S(=O)(=O)Nc2cc(Br)cc(Br)c2Br)cc1N1CCNCC1
Ki (nM): 2.51
//
compoundSmiles: COc1ccc(S(=O)(=O)Nc2ccccc2Br)cc1N1CCNCC1
Ki (nM): 1.58
//
compoundSmiles: COc1ccc(S(=O)(=O)Nc2cc(Br)cc(Cl)c2Br)cc1N1CCNCC1
Ki (nM): 3.98
//
compoundSmiles: COc1ccc(S(=O)(=O)Nc2cccc(I)c2)cc1N1CCNCC1
Ki (nM): 0.501
//
compoundSmiles: COc1ccc(S(=O)(=O)Nc2ccccc2C(C)C)cc1N1CCNCC1
Ki (nM): 1
//
compoundSmiles: COc1ccc(S(=O)(=O)N2c3ccccc3CC2(C)C)cc1N1CCNCC1
Ki (nM): 0.794
//
compoundSmiles: COc1ccc(S(=O)(=O)Nc2cc(Cl)cc(Br)c2Cl)cc1N1CCNCC1
Ki (nM): 2
//
compoundSmiles: COc1ccc(S(=O)(=O)Nc2cc(Br)cc(Br)c2F)cc1N1CCNCC1
Ki (nM): 2.51
//
compoundSmiles: COc1ccc(S(=O)(=O)Nc2cc(Br)cc(Br)c2)cc1N1CCNCC1
Ki (nM): 0.501
//
compoundSmiles: COc1ccc(S(=O)(=O)Nc2cc(Cl)c(Cl)cc2Cl)cc1N1CCNCC1
Ki (nM): 5.01
//
compoundSmiles: COc1ccc(S(=O)(=O)Nc2cc(Br)cc(Cl)c2Cl)cc1N1CCNCC1
Ki (nM): 3.98
//
compoundSmiles: COc1ccc(S(=O)(=O)N2CCCc3ccc(Br)cc32)cc1N1CCNCC1
Ki (nM): 0.316
//
compoundSmiles: COc1ccc(S(=O)(=O)Nc2cccc(Br)c2)cc1N1CCNCC1
Ki (nM): 1.26
//
compoundSmiles: COc1ccc(S(=O)(=O)Nc2cc(F)cc(F)c2Cl)cc1N1CCNCC1
Ki (nM): 31.6
//
compoundSmiles: COc1ccc(S(=O)(=O)Nc2cc(Cl)cc(Cl)c2Br)cc1N1CCNCC1
Ki (nM): 3.16
//
compoundSmiles: COc1ccc(S(=O)(=O)Nc2ccc(C)cc2Br)cc1N1CCNCC1
Ki (nM): 7.94
//
compoundSmiles: COc1ccc(S(=O)(=O)N2CCc3cc(I)ccc32)cc1N1CCNCC1
Ki (nM): 3.98
